From: PubChem BioAssay (NCI)

- Test system: TK-10 renal
- procedure text: NCI-60 one-dose screen, 48 h (100 = growth as untreated, 0 = no growth, -100 = all killed)
- measurement parameters: 10 µM unless noted
Compounds without any hit were thinned out: in the full panel of roughly 83,000, 20% have a hit. Calls of active or inactive are those of the source. Rule for the calls: active = growth percent below 10; inactive = the rest.
measurement name: growth

CC(=O)O[C@]1(C(C)=O)CC[C@H]2[C@@H]3C=C(Cl)C4=CC(=O)CC[C@]4(C)[C@H]3CC[C@@]21C; 113% (inactive)
CCCCCCCC(=O)Nc1nc2[nH]c(CN3CCN(Cc4cccc(I)c4)CC3)c(CN3CCN(Cc4cccc(I)c4)CC3)c2c(=O)[nH]1; -91.9% (active)
COc1ccc(NC(=O)c2sc3nc(C)c(C(O)c4ccc(OC)cc4)cc3c2N)cc1 (stereo not given); 60.7% (inactive)
COc1ccc(/C=C/C(=O)c2ccc(OC)c(OC)c2)cc1O; 83.8% (inactive)
CC(=O)CCSc1ccc(OC(C)=O)cc1; 96.3% (inactive)
CC[N+](CC)(CCCC(C)[N+]1(Cc2ccccc2)C(C)=CC=C1C)Cc1ccccc1 (stereo not given); 93.8% (inactive)
COc1ccc(-c2nc(SC(C)C)nc(NNC(N)=O)c2C#N)cc1; 97.1% (inactive)
CCOC(=O)c1c(O)cc(-c2ccccc2)cc1-c1sc(N(C)Cc2ccccc2)nc1Cl; 108% (inactive)
COc1cc2nc(Cc3ccc(C)cc3)[nH]c(=O)c2cc1OC; 292% (inactive)
O=C(Nc1ccc2cc3ccc(NC(=O)N4CCCCCC4)cc3nc2c1)N1CCCCCC1; -62.3% (active)
CC(=O)c1c[nH]c2ccc(-c3ccnc(Nc4ccc(NC(=O)c5cccc(F)c5)c(CN5CCOCC5)c4)n3)cc12; 1.22% (active)
C#CC(=O)Nc1cccc(Nc2nc3c(c(NCc4ccccc4)n2)CCCC3)c1; -97.2% (active)
CCCCCCC/C=C/[C@H]1O[C@]2(O)C(=O)C=C3C[C@@H](O[C@@H]4O[C@H](CO)[C@@H](O)C(O)[C@@H]4O)C[C@@H]3[C@H]2C=C1C (stereo not given in full); 4.93% (active)
O=C(Nc1ccc(F)cc1)c1c(NC(=O)C(F)(F)F)sc2c1CCCCC2; 15.5% (inactive)
CN1C(=O)N(C)C2NC(N/N=C/c3ccccc3)=NC21 (stereo not given); 100% (inactive)
CC1NC(=S)NC(=O)/C1=C/c1cc(=O)oc2c1ccc1ccccc12 (stereo not given); 123% (inactive)
O=C1CCCN1c1cccc2cccnc12; 88.5% (inactive)
COc1ccc(-c2cnnc3c(-c4cccc(C(F)(F)F)c4)cnn23)cc1; 21% (inactive)
O=c1[nH]c(=O)[nH]c(=S)[nH]1; 95.8% (inactive)
O=C(O)CNC(=O)CN1C(=O)c2ccccc2C1=O; 104% (inactive)
CC(=O)N1c2ccccc2NC2=C(C(=O)N(Cc3ccccc3)C2(C)C)C1c1ccco1 (stereo not given); 54.9% (inactive)
Cc1ccc(C(=O)Nc2ccccc2C(=O)N/N=C(\c2ccccc2)c2ccccn2)cc1; 47.2% (inactive)
COc1cc(/C=C/C(=O)c2c(C)oc3nc[nH]c(=O)c23)ccc1O; 135% (inactive)
C=C1C(=O)O[C@H]2[C@H]1CC/C(CNC(=O)/C=C/c1ccc(Br)cc1)=C\CC[C@@]1(C)O[C@@H]21; -67.9% (active)
CC(=O)Nc1ccc(C(=O)Nc2cc(-c3ccccc3)ccc2N)cc1; 59.5% (inactive)
O=C(N/N=C/c1ccc(F)cc1)c1ccccc1Nc1cccc(C(F)(F)F)c1; 130% (inactive)
CN1CCN(c2ccc3nc(-c4cc(C(C)(C)C)c(O)c(C(C)(C)C)c4)[nH]c3c2)CC1; 90.5% (inactive)
COc1nc(N)nc(-n2c(-c3ccc(C)cc3)nc3ccccc32)c1NCc1ccc(C)cc1; 98.4% (inactive)
O=C1Nc2c(ccc(Cl)c2Cl)/C1=C/c1ccc([N+](=O)[O-])cc1; 103% (inactive)
COc1ccc(Cn2nc3c(c2-c2cc(OC)c(OC)c(OC)c2)-c2oncc2CC3)cc1; 96.2% (inactive)
CCCCCCc1nc2nc(Cl)c(Cl)nc2[nH]1; 76.9% (inactive)
CC1CCN(C(=O)OCc2nc3nc(Cl)nc(N4CCOCC4)c3[nH]2)CC1; -91.8% (active)
O=C(O)c1cn(C2CC2)c2cc(N3CCN(C(=O)C[n+]4cccc5ccccc54)CC3)c(F)cc2c1=O; 100% (inactive)
O=C1CCCCCCCCC(O)C(O)CCCC(c2cccs2)O1 (stereo not given); 115% (inactive)
c1ccc(N2N=C(c3cccc(Nc4ccncc4)c3)CC2c2ccc3c(c2)OCO3)cc1 (stereo not given); 63.1% (inactive)
CN1CCN(c2c(F)cc(NC3=C(Cl)C(=O)c4ncccc4C3=O)cc2F)CC1; 66.9% (inactive)
C1=C2CNCC3=Cc4ccc5ccccc5c4OC23Oc2c1ccc1ccccc21; 89.7% (inactive)
CCN(CC)CCSCCCNc1c(C)cnc2cc(Cl)ccc12; 118% (inactive)
CC(N)C(=O)NNc1n[nH]c(=S)n1N (stereo not given); 108% (inactive)
C=CCn1c(SCC(=O)Nc2ccc(C(=O)/C=C/c3cc(OC)c(OC)c(OC)c3)cc2)nnc1-c1cc(OC)c(OC)c(OC)c1; 87.3% (inactive)

---

Items are presented alongside their recorded growth.
- System: SNB-19 CNS
- procedure text: NCI-60 one-dose screen, 48 h (100 = growth as untreated, 0 = no growth, -100 = all killed)
- measurement parameters: 10 µM unless noted
This is part of a sample that, as a whole, favours compounds with a hit. Of some 83,000 tested, about 20% had one in any assay. Active and inactive are the calls of the source. How the source made its calls: active means growth percent below 10; inactive means the rest.
measurement name: growth

COc1cc(-c2nc3sccn3c2-c2ccnc(NCCNS(=O)(=O)c3ccc(F)cc3)n2)ccc1F; 35.7% (inactive)
COc1ccccc1OCC(=O)N1CCCCCC1; 96.2% (inactive)
COc1ccc(-c2nc(N/N=C/c3cccc(Br)c3)nc(N3CCOCC3)c2C#N)cc1; 93.4% (inactive)
C=C1C(=O)O[C@H]2[C@H]1CC/C(CNC(=O)/C=C/c1ccc(Br)cc1)=C\CC[C@@]1(C)O[C@@H]21; 15.9% (inactive)
S=c1[nH]cccc1-c1nnc2n1Nc1nc3ccccc3cc1CS2; 94.8% (inactive)

---

- Tested on: SNB-19 CNS
- procedure text: NCI-60 one-dose screen, 48 h (100 = growth as untreated, 0 = no growth, -100 = all killed)
- measurement parameters: 10 µM unless noted
About 83,000 compounds went through this panel and 20% of them were active in at least one assay; those are over-represented in the sample as a whole.
measurement name: growth (%)

CC(C)NC(=O)N1C(=O)CCC1NNC(=O)c1ccc([N+](=O)[O-])cc1 (stereo not given); 107
Cn1c(=O)c2[nH]c(CCCc3nc4c([nH]3)c(=O)n(C)c(=O)n4C)nc2n(C)c1=O; 101
Cc1cc(C)n(Nc2nc3ccccc3[nH]c2=O)c(=O)c1C#N; 93.1
O=C(OC(OC(=O)c1cc(Cl)cc(Cl)c1)c1cccc2ccccc12)c1ccccc1 (stereo not given); 100
COc1ccc(C(=O)c2cc3c(N)c(C(=O)Nc4cccc(OC)c4)sc3nc2C)cc1; 40.2
Nc1nc(SN=Nc2ccc(S(N)(=O)=O)cc2)c2[nH]cnc2n1; 103
NC(=O)CN1CCN(c2ccccc2Cl)CC1; 118
O=C(N/N=C/c1ccc(F)cc1)c1ccccc1Nc1cccc(C(F)(F)F)c1; 90.2
COc1cc2nc(-c3ccc(-c4nn[nH]n4)cc3)[nH]c(=O)c2cc1OC; 94.3
COc1ccccc1Nc1cc(O)c2c(=O)cc(-c3ccccc3)oc2c1; 43.9

---

- Test system: K-562 leukemia
- procedure text: NCI-60 one-dose screen, 48 h
- measurement parameters: 10 µM unless noted
About 83,000 compounds went through this panel and 20% of them were active in at least one assay; those are over-represented in the sample as a whole. Calls of active or inactive are those of the source. How the source made its calls: active means growth percent below 10; inactive means the rest.
Classes used: active, inactive

CC(=O)N1c2ccccc2NC2=C(C(=O)N(Cc3ccccc3)C2(C)C)C1c1ccco1 (stereo unspecified); inactive
O=C(/C=C\c1ccc(OCCCCCC[P+](c2ccccc2)(c2ccccc2)c2ccccc2)cc1)c1ccc2c(c1)OCCO2; active
COc1ccc2c(Nc3ccc(NS(C)(=O)=O)cc3)c3ccccc3nc2c1; active
CCOC(=O)N1CCN(CCCCl)CC1; inactive
CCOC(=O)C1CC(=O)c2cc(OC)c(OC)cc2C1 (stereo unspecified); inactive
Clc1ccc(C2CC(c3cccc(Nc4ccncc4)c3)=NN2c2ccc(Cl)cc2)cc1 (stereo unspecified); active
FC(F)(F)c1cccc(Oc2ccc(Nc3ncnc4ccc(OCCCN5CCOCC5)cc34)cc2Cl)c1; active
COc1ccncc1C#Cc1cncc(C(=O)Nc2ccc(CN3CCN(C)CC3)c(C(F)(F)F)c2)c1; active
COc1ccc(NC(=O)c2sc3nc(C)c(C(=O)c4ccc(OC)cc4)cc3c2N)cc1; inactive
CC(C)C1C2=C(NCCN1C(=O)Cc1ccccc1)C(C)(C)N(Cc1ccccc1)C2=O (stereo unspecified); inactive
Clc1ccc(C2CC(c3cccc(Nc4ccncc4)c3)=NN2c2ccccc2)cc1 (stereo unspecified); active
COc1ccc(C(=O)c2cc3c(N)c(C(=O)Nc4ccc(Br)cc4)sc3nc2C)cc1; inactive
Nc1nc(N)nc(NCc2ccccc2)n1; inactive
CCCNC(=O)Oc1ccc(/C(=C(\C)c2ccccc2)c2ccc(OCCN3CCCCC3)cc2)cc1; inactive
CCN1C(=O)N(CC)C2NC(SC)=NC21 (stereo unspecified); inactive
O=S(=O)(NCCCNc1nccc(-c2c(-c3cccc(O)c3)nc3occn23)n1)c1ccc(Br)cc1; inactive
COc1ccc(Cn2nc(-c3cc(OC)c(OC)c(OC)c3)c3c2CCc2cnoc2-3)cc1OC; inactive
Cc1ccc(C2CC(c3cccc(Nc4ccncc4)c3)=NN2c2ccc(Cl)cc2)cc1 (stereo unspecified); active
CCCCN(CCCC)CCc1c(C)cc(C)c(CCN(CCCC)CCCC)c1O; inactive
CCOC(=O)c1c(C)nc2c(c1N)C(=O)C(=O)N2Cc1ccc(C(F)(F)F)cc1; inactive
CCCc1cc2c(cc1Br)OCO2; inactive
